Some molecules, each annotated with its measured relative viability.
# Test system: NCI-H460
# Run Description: relative viability (nuclei count vs DMSO), 5 days (fraction); higher = more cells survive
# Experimental Conditions: first compound 0.1265 µM
Give the value as a plain number.

Example entries begin here.
molecule="O=C(O)c1ccc(-c2c[nH]c3ncc(-c4ccccc4)cc23)cc1C1CCCC1 + Cc1cc(Nc2cc(N3CCN(C)CC3)nc(Sc3ccc(NC(=O)C4CC4)cc3)n2)n[nH]1 [Tozasertib] (partner 0.1 µM)" result_number=0.384
molecule="O=C(O)c1ccc(-c2c[nH]c3ncc(-c4ccccc4)cc23)cc1C1CCCC1 + Nc1ncn([C@H]2C[C@H](O)[C@@H](CO)O2)c(=O)n1 [Decitabine] (partner 2 µM)" result_number=0.531
molecule="O=C(O)c1ccc(-c2c[nH]c3ncc(-c4ccccc4)cc23)cc1C1CCCC1 + COc1cccc2cc(-c3nc([C@H]4CC[C@H](C(=O)O)CC4)n4ncnc(N)c34)[nH]c12 [OSI-027] (partner 0.5 µM)" result_number=0.75

Now for a further molecule.
Looking for the measured relative viability of O=C(O)c1ccc(-c2c[nH]c3ncc(-c4ccccc4)cc23)cc1C1CCCC1 + C[C@@H](Oc1cc(-c2cnn(C3CCNCC3)c2)cnc1N)c1c(Cl)ccc(F)c1Cl [Crizotinib] (partner 1 µM) , can you help?
1.06
